# Experimental protocol: soluble on expression in E. coli; label from the status in PepcDB or PDB records
Assay readout: soluble on expression in E. coli

{"Seq text": "MNRTPSLHTKEKKGFIDMHTMWKGSISFGLVNIPIKLYAATEDKDIKLRSLHKEDHAPIKYEKVCTNCEKTLSPDEIVKGYEYVKGKYVVLTDEDLKSLKQEHEEKAVEIVDFVQLQEIDPIYFNRSYFVGPGDNGTKAYTLLREALRSTGKIGIANMTIRSKQQLAILRVYENCIVMESIHYPDEVRS", "soluble on expression in E. coli": "not soluble"}
{"Seq text": "MPDQISVSEFVAETLEDYKAPTASSFTRTAQCRNTAAAIEEDAVTYDDVHVNFTREEWNLLHPSQKSLYKDVMLETYWNLTVIGYTWENHHIERHCQSSRRNERFSLHCQLP", "soluble on expression in E. coli": "not soluble"}
{"Seq text": "EDKTITTLYVGGLGDTITETDLRNHFYQFGEIRTITVVQRQQCAFIQFATRQAAEVAAEKSFNKLIVNGRRLNVKWGR", "soluble on expression in E. coli": "soluble"}
{"Seq text": "GSHMFYAVRRGRKTGVFLTWNECRAQVDRFPAARFKKFATEDEAWAFVRKSAS", "soluble on expression in E. coli": "soluble"}
{"Seq text": "MAGDPMGRQRGAGLGGGHDEREQTLNQMLVEMDGFSGNDGVIVIAATNRPDVLDPALTRPGRFDRQVVVGLPDVKGREQILKVHMRKVSVAQDVDAMTLARGTPGYSGADLANLVNEAALFAARVNKRTVTMLEFEKAKDKINMGPERRTMIMTDKQKESTAYHEAGHAIVGYLVPEHDPVHKVTIIPRGRALGVTFFLPEGDQISISQKQLESKLSTLYAGRLAEDLIYGEENISTGASNDIKVATNIARNMVTQWGFSEKLGPILYTEDEGEVFLGRSMAKAKHMSDETAHSIDEEVRAIVNRNYARAREILIDNMDILHAMKDALVKYETIEEEQIKQLMNREPVTPPSGWGEPKTQQAAYANSTTNDTKPESAVENTDDFNVAAALEHHHHHH", "soluble on expression in E. coli": "not soluble"}
{"Seq text": "MGHHHHHHSHIPFDYIVEKTVSTGVLVDVIGALLEVGNLTEDYRGLKLPFKIMDQYKEVLQCEAHNDQALEFQRFFQRLTGPQNVIALVSWRLSGIYKLKTLSNDPISKVIANPDIPEVEEIRVVVY", "soluble on expression in E. coli": "not soluble"}
{"Seq text": "MARMNRPAPVEVTYKNMRFLITHNPTNATLNKFIEELKKYGVTTIVRVCEATYDTTLVEKEGIHVLDWPFDDGAPPSNQIVDDWLSLVKIKFREEPGCCIAVHSVAGLGRAPVLVALALIEGGMKYEDAVQFIRQKRRGAFNSKQLLYLEKYRPKMRLRFKDSNGHRNNCCIQ", "soluble on expression in E. coli": "soluble"}

Then there is this sequence:
Query string: Which soluble on expression in E. coli reading was recorded for the sequence `LNLSEKQVVKIGILQYVTHDALDAIEKGVEDGLAQEGYKGKKVKLTVLNAEADQSKIQAMSKQLVNHHNDILIGIATPSAQGLAASTKDTPIIMGAVSDPLGAKLVTNMKKPTTNVTGLSNVVPTKQTVQLIKDITPNIKRIGILYASSEDNSVSQVTEFTKYAQKAGLEVLKYSVPSTNEIKTSMSVMTKKVDAVFVPQDNTIASAFRTVIVAANQANIPVYSSVDTMVEQGSIASVAQSQYGLGLETAKQAIKVLRGKPVKDVPVKVIDTGKPSLNLKAAKHLGIKIPKKIMKQAEITVKVD` ?
Result string: not soluble
